System: flank organ hair growth
PROCEDURE SUMMARY: Golden Syrian hamster assay (flank organ hair mass after topical treatment)
Format: in vivo
EXPERIMENTAL CONTEXT: 10% concentration in vehicle, topical 10 μl once a day, thirteen applications; vs vehicle treated side
Mark Criterion met for reported % Inhibition (hair growth) of 60% or greater; mark Criterion not met for anything smaller.

Past entries and their recorded results:
SMILES STRUCTURE: O=C[C@H](O)[C@@H](O)[C@H](O)[C@H](S)CO
CAT: Criterion not met

SMILES STRUCTURE: O=C(O)COP(=O)(O)O
CAT: Criterion met

SMILES STRUCTURE: O=C(O)c1cc(=O)c2ccccc2[nH]1
CAT: Criterion met

SMILES STRUCTURE: O=C(O)C(=O)Cc1ccccc1
CAT: Criterion not met

SMILES STRUCTURE: O=C(O)C(=O)CF
CAT: Criterion not met

Confirm if % Inhibition (hair growth) reported for the compound `O=C(O)C(=O)CBr` is 60% or above.
Criterion not met
